Listed below: Population Hoechst High Intensity Objects (%) values for each entry.
- Test system: Fibroblast
- methodSummary: Multiplex assay against human fibroblast
- Assay type: toxicity, cell-based
- experimentalConditions: 24 h, 10 µM, compound concentration 10 uM, replicate 1
State just the number; it will be interpreted in %.

Nc1ccc(C(=O)Nc2cccc(-c3nc(N4CCOCC4)c4oc5ncccc5c4n3)c2)cn1 :: 46

Input line: Population Hoechst High Intensity Objects (%) for `CC(C)N1CCC(C)(C)c2cc(C#Cc3ccc(C(=O)O)cc3)ccc21` ?
Output line: 78

* * *

- System: HEK-293T
- methodSummary: Multiplex assay against HEK293T
- Format: toxicity, cell-based
- experimentalConditions: human, 24 h, 10 µM, compound concentration 10 uM, replicate 2
Population Mitotic Cells (%) values for the molecules below.
Answer format: number, then unit.

Reference set, count: 3
CCc1cc2c(cc1CC)CC(NC[C@H](O)c1ccc(O)c3[nH]c(=O)ccc13)C2 [INDACATEROL] :: 4%
Cl.Cl.Nc1ncnc2c1c(-c1cccc(OCc3ccccc3)c1)cn2[C@H]1C[C@@H](CN2CCC2)C1 :: 0%
Cc1cc2c(cc1N1C(=O)c3cccc4c(CCCO)ccc(c34)C1=O)n(C)c(=O)n2C :: 52%

Input line: Recorded Population Mitotic Cells (%) of CCOc1cc2ncc(C#N)c(Nc3ccc(OCc4cccc(F)c4)c(Cl)c3)c2cc1NC(=O)/C=C/CN(C)C [HKI-357] , please.
Output line: 88%

Input line: Population Mitotic Cells (%) for `COc1ccc(NS(=O)(=O)c2sc3ccc(Cl)cc3c2C)cc1N1CCNCC1.Cl` ?
Output line: 9%

Input line: Field request: Population Mitotic Cells (%) | item: `Nc1ccc(C(=O)Nc2cccc(-c3nc(N4CCOCC4)c4oc5ncccc5c4n3)c2)cn1`
Output line: 32%

Input line: What value of Population Mitotic Cells (%) has been recorded for this entry: `COc1cc2c(NC3CCN(C(C)C)CC3)nc(N3CCC(F)(F)CC3)nc2cc1OCCCN1CCCC1`
Output line: 4%

Input line: Need Population Mitotic Cells (%) of `CNc1oc(-c2cccc3ccccc23)nc1C#N` , thanks.
Output line: 86%

* * *

- System: U2OS
- methodSummary: Multiplex assay against U2OS
- Format: toxicity, cell-based
- experimentalConditions: human, 24 h, 10 µM, compound concentration 10 uM, replicate 1
assayReadout: Population Mitochondria Different-Phenotype (%)
# value in %; strip the unit string

Solved cases (3 shown):
CNC(=O)c1cc(Oc2ccc(NC(=O)Nc3cc(C(C)(C)C)nn3-c3ccc4ncccc4c3)c(F)c2)ccn1 [REBASTINIB] :: 91
CCOc1cc2ncc(C#N)c(Nc3ccc(OCc4cccc(F)c4)c(Cl)c3)c2cc1NC(=O)/C=C/CN(C)C [HKI-357] :: 58
CCc1cc2c(cc1CC)CC(NC[C@H](O)c1ccc(O)c3[nH]c(=O)ccc13)C2 [INDACATEROL] :: 96

Input line: State the recorded Population Mitochondria Different-Phenotype (%) for this entry: `CCOc1cc(N2CCC(O)CC2)ccc1Nc1ncc2c(n1)N(C1CCCC1)CCC(=O)N2C`
Output line: 22

Input line: Look up Population Mitochondria Different-Phenotype (%): `Cc1cc2c(cc1N1C(=O)c3cccc4c(CCCO)ccc(c34)C1=O)n(C)c(=O)n2C`
Output line: 35

Input line: Tell me the measured Population Mitochondria Different-Phenotype (%) of `Nc1nc2c(c(N3CCNCC3)n1)CCC1=C2[C@@H]2CCCC[C@@H]2O1` , please.
Output line: 85

Input line: Item `COc1cc2c(Nc3ccc(NC(=O)c4ccccc4)cc3)ncnc2cc1OCCCN1CCOCC1` has what recorded Population Mitochondria Different-Phenotype (%)?
Output line: 37

Input line: Report Population Mitochondria Different-Phenotype (%) for `Cl.Cl.Nc1ncnc2c1c(-c1cccc(OCc3ccccc3)c1)cn2[C@H]1C[C@@H](CN2CCC2)C1` please.
Output line: 100

* * *

- Tested on: U2OS
- methodSummary: Multiplex assay against U2OS
- Format: toxicity, cell-based
- experimentalConditions: human, 24 h, 10 µM, compound concentration 10 uM, replicate 2
assayReadout: Population Normal (%)

Please review the following examples before continuing.
Nc1nc2c(c(N3CCNCC3)n1)CCC1=C2[C@@H]2CCCC[C@@H]2O1 :: 97%
Cc1nc(Cc2cccc(C(F)(F)F)c2)sc1-c1ccc(C(N)=O)nc1 [TP-024n] :: 97%
c1ccc2oc(-c3csc(C4CCN(Cc5nc6ncccc6[nH]5)CC4)n3)cc2c1 :: 90%
CN(C)CCOc1ccc(-c2nc(-c3ccncc3)c(-c3ccc4c(c3)CC/C4=N\O)[nH]2)cc1 :: 92%

Input line: Data request, read-out Population Normal (%), for `COc1cc2c(Nc3ccc(NC(=O)c4ccccc4)cc3)ncnc2cc1OCCCN1CCOCC1`
Output line: 89%

Input line: Given `COc1cc2c(NC3CCN(C(C)C)CC3)nc(N3CCC(F)(F)CC3)nc2cc1OCCCN1CCCC1` , state its recorded Population Normal (%).
Output line: 92%

Input line: Can you look up the measured Population Normal (%) of `CC(C)N1CCC(C)(C)c2cc(C#Cc3ccc(C(=O)O)cc3)ccc21` for me?
Output line: 33%

Input line: What Population Normal (%) value was documented for this molecule, `Cc1cn(-c2cc(NC(=O)c3ccc4c(c3)CN(c3cncnc3)C[C@@H]4C)cc(C(F)(F)F)c2)cn1` ?
Output line: 93%

Input line: # input molecule: CN(C)C/C=C/C(=O)Nc1cc2c(Nc3ccc(F)c(Cl)c3)ncnc2cc1O[C@H]1CCOC1.O=C(O)/C=C\C(=O)O.O=C(O)/C=C\C(=O)O [AFATINIB DIMALEATE] ; wanted: its Population Normal (%)
Output line: 91%

* * *

- System: U2OS
- methodSummary: Multiplex assay against U2OS
- Assay type: toxicity, cell-based
- experimentalConditions: human, 12 h, 1 µM, compound concentration 1 uM, replicate 1
I would appreciate it if you labelled entries y when Population Mitotic Cells (%) is 50% or higher, otherwise n.

CCn1c(-c2nonc2N)nc2cnc(Oc3cccc(NC(=O)c4ccc(OCCN5CCOCC5)cc4)c3)cc21 [GSK-269962A] :: y
COc1ccc(NS(=O)(=O)c2sc3ccc(Cl)cc3c2C)cc1N1CCNCC1.Cl :: n
Cl.Cl.NC1(c2ccc(-c3nc4ccn5c(=O)[nH]nc5c4cc3-c3ccccc3)cc2)CCC1 :: n
Nc1ccc(C(=O)Nc2cccc(-c3nc(N4CCOCC4)c4oc5ncccc5c4n3)c2)cn1 :: y
CN(C)CCOc1ccc(-c2nc(-c3ccncc3)c(-c3ccc4c(c3)CC/C4=N\O)[nH]2)cc1 [SB590885] :: n
CC(C)N1CCC(C)(C)c2cc(C#Cc3ccc(C(=O)O)cc3)ccc21 :: y

Input line: Form field: Population Mitotic Cells (%) at least 50%? Entry: Cc1nc(Cc2cccc(C(F)(F)F)c2)sc1-c1ccc(C(N)=O)nc1 [TP-024n]
Output line: n

Input line: Quick check: does `COc1cc2c(Nc3ccc(NC(=O)c4ccccc4)cc3)ncnc2cc1OCCCN1CCOCC1` have Population Mitotic Cells (%) greater than or equal to 50%?
Output line: y

Input line: Does the reported Population Mitotic Cells (%) for CNC(=O)c1cc(Oc2ccc(NC(=O)Nc3cc(C(C)(C)C)nn3-c3ccc4ncccc4c3)c(F)c2)ccn1 [REBASTINIB] fall at or above the 50% mark?
Output line: y

* * *

- Tested on: Fibroblast
- methodSummary: Multiplex assay against human fibroblast
- Type: toxicity, cell-based
- experimentalConditions: 12 h, 10 µM, compound concentration 10 uM, replicate 1
Give Condition met when the value for Population Membrane Permeable-Phenotype (%) is at least 30%. Give Condition not met when it is less.

Use these answered entries as a reference point.
Cl.Cl.Nc1ncnc2c1c(-c1cccc(OCc3ccccc3)c1)cn2[C@H]1C[C@@H](CN2CCC2)C1 :: Condition not met
COc1cc2c(NC3CCN(C(C)C)CC3)nc(N3CCC(F)(F)CC3)nc2cc1OCCCN1CCCC1 :: Condition not met
Nc1nc2c(c(N3CCNCC3)n1)CCC1=C2[C@@H]2CCCC[C@@H]2O1 :: Condition not met

Kindly review the next compound as well.
Input line: Answer whether Population Membrane Permeable-Phenotype (%) of `O=C(O)c1ccc2cc(-c3ccc(O)c(C45CC6CC(CC(C6)C4)C5)c3)ccc2c1` is greater than or equal to 30%.
Output line: Condition met

* * *

- Tested on: Fibroblast
- methodSummary: Multiplex assay against human fibroblast
- Format: toxicity, cell-based
- experimentalConditions: 48 h, 10 µM, compound concentration 10 uM, replicate 1
Entry class follows Population Hoechst High Intensity Objects (%): lowest: < 20%; middle: ≥ 20% and < 50%; highest: ≥ 50%

Input line: Which Population Hoechst High Intensity Objects (%) category applies to CCCn1c(=O)c2[nH]c(C34CC5CC(CC3C5)C4)nc2n(CCC)c1=O [ROLOFYLLINE] here?
Output line: lowest

Input line: Each molecule maps to one class by Population Hoechst High Intensity Objects (%). Which class for `COc1cc2c(NC3CCN(C(C)C)CC3)nc(N3CCC(F)(F)CC3)nc2cc1OCCCN1CCCC1` ?
Output line: middle

Hello, the source for this data is ChEMBL document CHEMBL4689842, in case you need it.
